src = paper PMC6561178

- assay_system: Ec Hfq (Hfq102) (Escherichia coli, UniProt P0A6X3 1-102)
- procedure_summary: EMSA; Hill n 10.1; EMSA: 34 mM Tris-HCl pH 7.5, 50 mM NaCl, 50 mM KCl, 50 mM NH4Cl, 11.4 mM EDTA, 12% glycerol, 30 C, 30 min, ~1 nM 32P-RNA, Kd in Hfq6; anisotropy: 10 mM Tris-HCl
- conditions: protein: recombinant; tags: untagged; chain copies: 6; label: 32P; stem-loops
parameter: Kd
Phrase the answer as number then unit, nothing more needed.

Kd for ChiX (structured_RNA) RNA: GGGACACCGUCGCUUAAAGUGACGGCAUAAUAAUAAAAAAAUGAAAUUCCUCUUUGACGGGCCAAUAGCGAUAUUGGCCAUUUUUUU ? 20.3 nM
